This collection of values is drawn from ChEMBL document CHEMBL3526091.

Method: Half life in cancer patient at 80 mg for 60 mins treated 1/1 cycle/day
Format: ADME, organism-based
Set-up: dosed compound name LY2090314
Condition summary: human, in vivo
Quantity name: half-life (h)
Numbers only, in h.

State the recorded half-life for this entry: O=C1NC(=O)C(c2cnc3ccccn23)=C1c1cn2c3c(cc(F)cc13)CN(C(=O)N1CCCCC1)CC2
2.57

---

Method: Tmax in cancer patient at 40 mg for 60 mins treated 1/8 cycle/day
Format: ADME, organism-based
Design: dosed compound name LY2090314
Condition summary: human, in vivo
Quantity name: Tmax

State the recorded Tmax for this entry: O=C1NC(=O)C(c2cnc3ccccn23)=C1c1cn2c3c(cc(F)cc13)CN(C(=O)N1CCCCC1)CC2
1 h

---

Method: AUC (0 to infinity) in cancer patient at 40 mg for 60 mins treated 1/8 cycle/day
Format: ADME, organism-based
Design: dose 40 mg, time infinity, dosed compound name LY2090314
Condition summary: human, plasma
Quantity name: AUC(0-inf) (ng·h/mL)
Numbers only, in ng·h/mL.

State the recorded AUC(0-inf) for this entry: O=C1NC(=O)C(c2cnc3ccccn23)=C1c1cn2c3c(cc(F)cc13)CN(C(=O)N1CCCCC1)CC2 [LY-2090314]
938

---

Method: Clearance in cancer patient at 40 mg for 60 mins treated 1/1 cycle/day
Assay type: ADME, organism-based
Design: dosed compound name LY2090314
Condition summary: human, in vivo
Quantity name: clearance (mL/min)
Numbers only, in mL/min.

State the recorded clearance for this entry: O=C1NC(=O)C(c2cnc3ccccn23)=C1c1cn2c3c(cc(F)cc13)CN(C(=O)N1CCCCC1)CC2
688

---

Method: Plasma protein binding in cancer patient
Assay type: ADME, cell-free
Design: dosed compound name LY2090314
Condition summary: human, read-out: PPB (converted)
Quantity name: fraction unbound
One number for each entry.

State the recorded fraction unbound for this entry: O=C1NC(=O)C(c2cnc3ccccn23)=C1c1cn2c3c(cc(F)cc13)CN(C(=O)N1CCCCC1)CC2 [LY-2090314]
0.03

---

Method: Cmax in cancer patient at 120 mg for 60 mins treated 1/1 cycle/day
Type: ADME, organism-based
Parameters: dose 120 mg, dosed compound name LY2090314
Condition summary: human, in vivo
Quantity name: Cmax (ng/mL)
Give bare numbers, in ng/mL.

State the recorded Cmax for this entry: O=C1NC(=O)C(c2cnc3ccccn23)=C1c1cn2c3c(cc(F)cc13)CN(C(=O)N1CCCCC1)CC2
1700

---

Method: Clearance in cancer patient at 80 mg for 60 mins treated 1/1 cycle/day
Assay type: ADME, organism-based
Design: dosed compound name LY2090314
Condition summary: human, in vivo
Quantity name: clearance (mL/min)
Numbers only, in mL/min.

State the recorded clearance for this entry: O=C1NC(=O)C(c2cnc3ccccn23)=C1c1cn2c3c(cc(F)cc13)CN(C(=O)N1CCCCC1)CC2
747

---

Method: Tmax in cancer patient at 120 mg for 60 mins treated 1/8 cycle/day
Assay type: ADME, organism-based
Design: dosed compound name LY2090314
Condition summary: human, in vivo
Quantity name: Tmax (min)
Give bare numbers, in min.

State the recorded Tmax for this entry: O=C1NC(=O)C(c2cnc3ccccn23)=C1c1cn2c3c(cc(F)cc13)CN(C(=O)N1CCCCC1)CC2
30

---

Method: Volume of distribution at steady state in cancer patient at 60 mg for 60 mins treated 1/8 cycle/day
Format: ADME, organism-based
Set-up: dosed compound name LY2090314
Condition summary: human, in vivo, read-out: Vdss
Quantity name: Vd

State the recorded Vd for this entry: O=C1NC(=O)C(c2cnc3ccccn23)=C1c1cn2c3c(cc(F)cc13)CN(C(=O)N1CCCCC1)CC2 [LY-2090314]
67.5 L
